B1: OR4K15 (parent)
chain: GUUAACGGUCAUAGGCCAUGGAAACUAGGAGCACCAUUUCGCUGCCAGUGAAGAAAUGAACAAAGAAAAUCUGGGCCAGGCAGGCAUCAAAAGAAAUAGUCUUGCGCUCAACCAGAAAGUCUGUAAUCAUUUUAAGGGUA

# Variants of: B1
# assay-protocol: self-cleavage, relative activity (ratio to wild type); higher = more cleavage; in vitro, sequencing; the parent is a self-cleaving ribozyme
Param threshold (0.4) applies to self-cleavage; output Condition met when value >= threshold, Condition not met when value < threshold.

>>> assigned_class("A82U U127A")
"Condition not met"
>>> assigned_class("G136A A140U")
"Condition met"
>>> assigned_class("U12C A90U")
"Condition met"
>>> assigned_class("A22U U100C")
"Condition met"
>>> assigned_class("G53U A66U")
"Condition met"
>>> assigned_class("A64U G79U")
"Condition not met"
>>> assigned_class("A18C A82G")
"Condition met"
>>> assigned_class("G1A A13C")
"Condition met"
>>> assigned_class("U12C G28A")
"Condition met"
>>> assigned_class("U49A A64G")
"Condition met"
>>> assigned_class("U9C C76U")
"Condition not met"
>>> assigned_class("A5U G21A")
"Condition met"
>>> assigned_class("U49A U72G")
"Condition not met"
>>> assigned_class("U87A A125G")
"Condition met"
>>> assigned_class("U3A A4G")
"Condition met"
>>> assigned_class("C34U C101A")
"Condition not met"
>>> assigned_class("A4G U19C")
"Condition met"
>>> assigned_class("A98C U127C")
"Condition met"
>>> assigned_class("A56G A114U")
"Condition not met"
>>> assigned_class("G21A A27U")
"Condition met"
>>> assigned_class("A95G G115A")
"Condition not met"
>>> assigned_class("U39C A82G")
"Condition met"
